- target.under.test: MASP-2 CCP2-SP (Homo sapiens (Human))
- Sequence (O00187 445-686): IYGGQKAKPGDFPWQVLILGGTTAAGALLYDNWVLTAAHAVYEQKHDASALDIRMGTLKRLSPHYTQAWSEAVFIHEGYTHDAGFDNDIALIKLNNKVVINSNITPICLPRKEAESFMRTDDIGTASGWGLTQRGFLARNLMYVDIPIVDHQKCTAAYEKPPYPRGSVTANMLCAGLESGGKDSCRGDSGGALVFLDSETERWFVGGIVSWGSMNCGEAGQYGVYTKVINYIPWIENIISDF
- Sequence (O00187 364-432 partner): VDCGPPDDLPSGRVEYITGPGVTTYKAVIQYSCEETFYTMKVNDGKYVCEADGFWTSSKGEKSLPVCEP
- method.summary: MASP-2 co-crystallization, X-ray crystallography and structure analysis (H-bonds, van der Waals contacts);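 also: distance from averaged pharmacophore element to bound ligand; missing value means element absent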
- condition.summary: Table A4-1; element C3
measured.endpoint: Ligand-pharmacophore element distance, pharmacophore element C3

> print(dat)
                                   compound  observed
1  C[C@H](NC(=O)C1C[C@@H](c2ccccc2)CCN1)C(=O)NCc1ccc(C(=N)N)cc1 (stereo in doubt) [compound 1063]         0
2  C[C@H](NC(=O)[C@H](N)C1Cc2ccccc2C1)C(=O)NCc1ccc2c(N)nccc2c1.Cl.Cl [1088_B]         0
3  O=c1oc(-c2ccccc2[N+](=O)[O-])nc2ccccc12 [compound 14]         0
4  Cc1nc(N)ccc1CNC(=O)[C@H](C)NC(=O)[C@H]1C[C@H](Cc2cccc(Cl)c2)CN1.Cl.Cl [1328_3]      0.21
5  C[C@H](NC(=O)[C@H]1C[C@@H](c2ccccc2)CN1)C(=O)NCc1ccc2c(N)nccc2c1.Cl.Cl [1089_A]         0
6  Cc1nc(N)ccc1CNC(=O)[C@H](C)NC(=O)[C@H]1C[C@@H](c2ccccc2)CCN1C [compound 1441]      0.17
